Target: KRasG12C (M1-K169, biotinylated on the N-terminus) (Homo sapiens (Human), UniProt P01116, G12C)
Test: Covalent competition assay: scintillation proximity assay (SPA) quantifying covalent modification of KRASG12C
Conditions: competition with radiolabeled covalent probe (Compound B/Compound A), 2 hours incubation, 10 nM KRasG12C
Test readout: IC50 (µM)
Use µM as the unit, but write only the number.

Compound: C=CC(=O)N1CC2(CC(n3nc(N4CCC(N(C)C5COC5)CC45CCC5)c(-c4c(Cl)c(C)cc5[nH]nc(N)c45)c3C)C2)C1 (single isomer, unassigned) [Example 116b]
Unit of measure: µM
IC50: 1.9

Turning now to a further compound:
I would be grateful if you could share the reported IC50 for C=CC(=O)N1CC2(CC(n3nc(N4CC[C@@H](CN5C6CCC5CN(C(C)=O)C6)CC4(C)C)c(-c4c(Cl)c(Cl)cc5[nH]ncc45)c3C)C2)C1 (single isomer, unassigned) [Example 318b] . 0.007

* * *

Target: KRasG12C (M1-K169, biotinylated on the N-terminus) (Homo sapiens (Human), UniProt P01116, G12C)
Test: Covalent competition assay: scintillation proximity assay (SPA) quantifying covalent modification of KRASG12C
Conditions: competition with radiolabeled covalent probe (Compound B/Compound A), 2 hours incubation, 10 nM KRasG12C
Quick list: IC50 per entry.

Answered cases to consult:
Compound: C=CC(=O)N1CC2(CC(n3nc(N4CC[C@@H](CN5CCC6COCC65)CC4(C)C)c(-c4c(C)c(Cl)cc5[nH]ncc45)c3C)C2)C1 (single isomer, unassigned) [Example 306b]
Test readout: IC50
Result value: 5 nM
//
Compound: C=CC(=O)N1CC2(CC(n3nc(N4CC[C@@H](CN5CC(O)C(OC)C5)CC4(C)C)c(-c4c(Cl)c(Cl)cc5[nH]ncc45)c3C)C2)C1 (single isomer, unassigned) [Example 273a]
Test readout: IC50
Result value: 1100 nM
//
Compound: C=CC(=O)N1CC2(CC(n3nc(N4CCC(N(C)[C@@H]5CCOC5)CC4(C)C)c(-c4c(Cl)c(C)cc5[nH]ncc45)c3C)C2)C1 (single isomer, unassigned) [Example 84a]
Test readout: IC50
Result value: > 5000 nM
//
Compound: C=CC(=O)N1CC2(CC(n3nc(N4CC[C@@H](CN5CCN6C[C@@H](O)C[C@@H]6C5)CC4(C)C)c(-c4c(Cl)c(Cl)cc5[nH]ncc45)c3C)C2)C1 (single isomer, unassigned) [Example 287b]
Test readout: IC50
Result value: 9 nM

Fill blank: measured IC50 of the compound C=CC(=O)N1CC2(CC(n3nc(N4CC(c5cccnc5)C4)c(-c4c(Cl)c(C)cc5[nH]ncc45)c3C)C2)C1 (single isomer, unassigned) [Example 37b] is ____. 2100 nM

Now the compound C=CC(=O)N1CC2(CC(n3nc(N4CC[C@@H](CN5CCn6cnnc6C5)CC4(C)C)c(-c4c(Cl)c(Cl)cc5[nH]ncc45)c3C)C2)C1 (single isomer, unassigned) [Example 250a] 405 nM

Another compound to look at: C=CC(=O)N1CC2(CC(n3nc(N4C[C@H](C)N(C5COC5)CC4(C)C)c(-c4c(Cl)c(Cl)cc5[nH]ncc45)c3C)C2)C1 (single isomer, unassigned) [Example 104a] 4440 nM

// same read-out, input: C=CC(=O)N1CC2(CC(n3nc(N4CC[C@@H](CN5CC6(CCS(=O)(=O)C6)C5)CC4(C)C)c(-c4c(Cl)c(Cl)cc5[nH]ncc45)c3C)C2)C1 (single isomer, unassigned) [Example 254b] 8 nM

Moving on to the next compound: C=CC(=O)N1CC2(CC(n3nc(N4CCC(N5CCOCC5)CC4(C)C)c(-c4c(Cl)c(C)cc5[nH]ncc45)c3C)C2)C1 (single isomer, unassigned) [Example 34a] 3800 nM

Repeat for the following compound: C=CC(=O)N1CC2(CC(n3nc(N4CCCCC45CN(C(C)=O)C5)c(-c4c(Cl)c(C)cc5[nH]ncc45)c3C)C2)C1 (single isomer, unassigned) [Example 66a] > 50000 nM

* * *

Recorded measurements of IC50, one per entry
Target: KRasG12C (M1-K169, biotinylated on the N-terminus) (Homo sapiens (Human), UniProt P01116, G12C)
Assay: Covalent competition assay: scintillation proximity assay (SPA) quantifying covalent modification of KRASG12C
Details: competition with radiolabeled covalent probe (Compound B/Compound A), 2 hours incubation, 10 nM KRasG12C
Procedure: Cells were harvested by centrifugation and frozen at −80° C. until further processing. […] The cells were lysed by 4 passages through an Avestin Emulsiflex at about 20000 psi and insoluble debris removed by centrifugation and filtered through a 0.45 µm Durapore membrane (Millipore). […] Eluted protein fractions were analyzed by Novex NuPage 4-12% PAGE. […] Positive fractions were determined by PAGE (Novex NuPage 4-12% BisTris) analysis. […]

# annotated cases, reported IC50 shown
Compound: C=CC(=O)N1CC2(CC(n3nc(N4CC[C@@H](CN5CCN6C(=O)OCC6C5)CC4(C)C)c(-c4c(Cl)c(Cl)cc5[nH]ncc45)c3C)C2)C1 (single isomer, unassigned) [Example 312a]
Test readout: IC50
Result value: 831 nM
//
Compound: C=CC(=O)N1CC2(CC(n3nc(N4CC[C@H](CN5CCOCC5)CC4(C)C)c(-c4c(Cl)c(Cl)cc5[nH]ncc45)c3C)C2)C1 (single isomer, unassigned) [Example 214b]
Test readout: IC50
Result value: 679 nM

Next:
What value of IC50 has been recorded for this entry: C=CC(=O)N1CC2(CC(n3nc(N4CCN(C[C@@H]5COCCO5)C[C@]4(C)CCOC)c(-c4c(Cl)c(C)cc5[nH]ncc45)c3C)C2)C1 (single isomer, unassigned) [Example 85a] 5000 nM

* * *

Molecular target: KRasG12C (M1-K169, biotinylated on the N-terminus) (Homo sapiens (Human), UniProt P01116, G12C)
Experiment: Covalent competition assay: scintillation proximity assay (SPA) quantifying covalent modification of KRASG12C
Details: competition with radiolabeled covalent probe (Compound B/Compound A), 2 hours incubation, 10 nM KRasG12C
Reported pIC50 is given for each of the following molecules.
# log scale: pIC50 equals minus log10 of the concentration in mol/L

Solved entries:
Molecule: C=CC(=O)N1CC2(CC(n3nc(N4CCCC4(C)C)c(-c4c(Cl)c(C)cc5[nH]ncc45)c3C)C2)C1 (single isomer, unassigned) [Example 88b]
pIC50: 6.33
--
Molecule: C=CC(=O)N1CC2(CC(n3nc(N4CCN(C[C@@H]5COCCO5)C[C@]4(C)CC)c(-c4c(Cl)c(Cl)cc5[nH]ncc45)c3C)C2)C1 (single isomer, unassigned) [Example 89a]
pIC50: 5.47
--
Molecule: C=CC(=O)N1CC2(CC(n3nc(N4CC[C@@H](CN5CCC6(C5)CN(C(C)=O)C6)CC4(C)C)c(-c4c(Cl)c(Cl)cc5[nH]ncc45)c3C)C2)C1 (single isomer, unassigned) [Example 317a]
pIC50: 6.05

Entry C=CC(=O)N1CC2(CC(n3nc(N4CC[C@@H](CN5CC(O)C(OC)C5)CC4(C)C)c(-c4c(Cl)c(Cl)cc5[nH]ncc45)c3C)C2)C1 (single isomer, unassigned) [Example 273b] has what pIC50? 8.00

* * *

Target: KRasG12C (M1-K169, biotinylated on the N-terminus) (Homo sapiens (Human), UniProt P01116, G12C)
Experiment: Covalent competition assay: scintillation proximity assay (SPA) quantifying covalent modification of KRASG12C
Settings: competition with radiolabeled covalent probe (Compound B/Compound A), 2 hours incubation, 10 nM KRasG12C
Test readout: IC50 (µM)
Write the answer as a number in µM, unit excluded.

Sample records with IC50:
Molecule: C=CC(=O)N1CC2(CC(n3nc(N4CC[C@@H](CN5CCOCC5)CC4(C)C)c(-c4c(C)c(Cl)cc5[nH]ncc45)c3C)C2)C1 (single isomer, unassigned) [Example 233a]
IC50 [µM]: 4
//
Molecule: C=CC(=O)N1CC2(CC(n3nc(N4CCN(C[C@@H]5COCCO5)C[C@]4(C)COC)c(-c4c(Cl)c(Cl)cc5[nH]ncc45)c3C)C2)C1 (single isomer, unassigned) [Example 182a]
IC50 [µM]: 1.4
//
Molecule: C=CC(=O)N1CC2(CC(n3nc(N4CCn5ccnc5C4)c(-c4c(Cl)c(C)cc5[nH]ncc45)c3C)C2)C1 (single isomer, unassigned) [Example 19a]
IC50 [µM]: 0.894
//
Molecule: CC[C@@]1(C)CN(C[C@@H]2COCCO2)CCN1c1nn(C2CC3(C2)CN(C(=O)/C=C/COC)C3)c(C)c1-c1c(Cl)c(C)cc2[nH]ncc12 (single isomer, unassigned) [Example 120b]
IC50 [µM]: 0.14
//
Molecule: C=CC(=O)N1CC2(CC(n3nc(N4CCN(C(C)=O)CC4(C)C)c(-c4c(Cl)c(C)cc5[nH]ncc45)c3C3CC3)C2)C1 (single isomer, unassigned) [Example 24b]
IC50 [µM]: 0.167
//
Molecule: C=CC(=O)N1CC2(CC(n3nc(N4CCN(C5CCOCC5)C[C@]4(C)COC)c(-c4c(Cl)c(C)cc5[nH]ncc45)c3C)C2)C1 (single isomer, unassigned) [Example 149b]
IC50 [µM]: 0.009
//
Molecule: C=CC(=O)N1CC2(CC(n3nc(N4CC[C@@H](CN5C6CCC5CN(C(C)=O)C6)CC4(C)C)c(-c4c(Cl)c(Cl)cc5[nH]ncc45)c3C)C2)C1 (single isomer, unassigned) [Example 318a]
IC50 [µM]: 4
//
Molecule: C=CC(=O)N1CC2(CC(n3nc(N4CC[C@@H](CN5CCOC6(C5)CN(C(C)=O)C6)CC4(C)C)c(-c4c(Cl)c(Cl)cc5[nH]ncc45)c3C)C2)C1 (single isomer, unassigned) [Example 311b]
IC50 [µM]: 0.018
//
Molecule: C=CC(=O)N1CC2(CC(n3nc(N4CCN(C[C@@H]5COCCO5)C[C@]4(C)COC)c(-c4c(Cl)c(C)cc5[nH]ncc45)c3C)C2)C1 (single isomer, unassigned) [Example 181a]
IC50 [µM]: 0.929
//
Molecule: C=CC(=O)N1CC2(CC(n3nc(N4CC[C@@H](CN5CCOCC5)CC4(C)C)c(-c4c(Cl)c(C)cc5[nH]nc(N)c45)c3C)C2)C1 (single isomer, unassigned) [Example 242a]
IC50 [µM]: 0.013

# input molecule: C=CC(=O)N1CC2(CC(n3nc(N4CCN(C(=O)C5CC5)CC4(C)C)c(-c4c(Cl)c(C)cc5[nH]ncc45)c3C)C2)C1 (single isomer, unassigned) [Example 127b] ; wanted: its IC50 0.02

Item: C=CC(=O)N1CC2(CC(n3nc(N4CCC(n5ccnc5)CC4(C)C)c(-c4c(Cl)c(C)cc5[nH]ncc45)c3C)C2)C1 (single isomer, unassigned) [Example 44a] 4.6

Try this molecule next: C=CC(=O)N1CC2(CC(n3nc(N4CCC(N(CC)C5COC5)CC4(C)C)c(-c4c(Cl)c(C)cc5[nH]ncc45)c3C)C2)C1 (single isomer, unassigned) [Example 48b] 0.006

Try this molecule too: C=CC(=O)N1CC2(CC(n3nc(N4CC[C@@H](CN5CCC56COC6)CC4(C)C)c(-c4c(Cl)c(Cl)cc5[nH]ncc45)c3C)C2)C1 (single isomer, unassigned) [Example 307b] 0.008

Also C=CC(=O)N1CC2(CC(n3nc(N4CCN(C(C)=O)C[C@]4(C)CC)c(-c4c(Cl)c(C)cc5[nH]ncc45)c3C)C2)C1 (single isomer, unassigned) [Example 121b] , if possible. 0.008

And then C=CC(=O)N1CC2(CC(n3nc(N4[C@H](C)CN(C(C)=O)C[C@@H]4C)c(-c4c(Cl)c(C)cc5[nH]ncc45)c3C)C2)C1 (single isomer, unassigned) [Example 13b] , what is it? 2.1

One more molecule: C=CC(=O)N1CC2(CC(n3nc(N4CC[C@@H](CN5CCN6CCOC[C@@H]6C5)CC4(C)C)c(-c4c(Cl)c(Cl)cc5[nH]ncc45)c3C)C2)C1 (single isomer, unassigned) [Example 279b] 0.006
